# measurement.target: Prostaglandin G/H synthase 1 (Ovis aries)
# Sequence (P05979 whole entry): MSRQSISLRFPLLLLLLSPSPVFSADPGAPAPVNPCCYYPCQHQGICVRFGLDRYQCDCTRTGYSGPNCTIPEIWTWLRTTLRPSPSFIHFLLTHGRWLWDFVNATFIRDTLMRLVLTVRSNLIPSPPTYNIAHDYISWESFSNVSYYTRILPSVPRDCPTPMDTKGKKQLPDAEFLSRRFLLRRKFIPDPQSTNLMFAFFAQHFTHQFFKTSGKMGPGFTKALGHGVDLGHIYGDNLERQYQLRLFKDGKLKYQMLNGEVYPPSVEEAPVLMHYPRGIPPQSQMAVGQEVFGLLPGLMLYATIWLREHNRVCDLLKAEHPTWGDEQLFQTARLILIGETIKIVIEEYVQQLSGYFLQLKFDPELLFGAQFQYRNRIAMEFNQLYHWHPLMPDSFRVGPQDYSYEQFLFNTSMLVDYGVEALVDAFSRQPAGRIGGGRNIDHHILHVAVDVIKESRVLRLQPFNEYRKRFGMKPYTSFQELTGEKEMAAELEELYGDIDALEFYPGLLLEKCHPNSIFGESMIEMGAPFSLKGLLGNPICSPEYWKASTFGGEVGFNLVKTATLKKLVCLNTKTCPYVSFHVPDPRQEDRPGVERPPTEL
pIC50: −log10 of the molar value.
measurement.label: pIC50

| cpd.smiles | measurement.label | observed |
| --- | --- | --- |
| Cn1c(=O)oc2cc(-c3cc(C(F)(F)F)nn3-c3ccc(Cl)cc3)ccc21 | pIC50 | 6.00 |
| Cn1c(=O)oc2cc(-c3cc(C(F)(F)F)nn3-c3ccc(F)cc3)ccc21 | pIC50 | 5.22 |
